The entries below are paired with their reported IC50.
- System: recombinant human cathepsin E (Homo sapiens, UniProt P14091)
- Sequence (P14091 54-396): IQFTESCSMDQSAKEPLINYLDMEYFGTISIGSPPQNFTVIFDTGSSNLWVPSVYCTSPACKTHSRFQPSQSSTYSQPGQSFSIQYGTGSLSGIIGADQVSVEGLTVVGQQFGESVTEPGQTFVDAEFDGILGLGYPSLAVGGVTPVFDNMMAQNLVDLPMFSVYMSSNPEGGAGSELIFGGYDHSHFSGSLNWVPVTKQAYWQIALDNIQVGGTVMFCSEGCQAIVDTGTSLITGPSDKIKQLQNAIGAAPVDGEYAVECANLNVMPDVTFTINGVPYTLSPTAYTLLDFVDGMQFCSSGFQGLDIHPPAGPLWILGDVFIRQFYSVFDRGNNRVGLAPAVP
- Assay explanation: Cathepsin E fluorescent substrate kinetic assay
- Test settings: pH 4.5

Consider the worked cases shown below.
>>> print(df.to_string())
                            chemical_string  measured_attribute    result
0  C[C@]1(c2cc(NC(=O)c3ccc(C#N)cn3)ccc2F)N=C(N)O[C@@H]2CCCC(F)(F)[C@@H]21                IC50  > 200 µM
1  C[C@]1(c2cc(NC(=O)c3ccc(C#N)cn3)ccc2F)N=C(N)O[C@@H]2CCC(F)(F)[C@@H]21                IC50     90 µM
2  CC(F)(F)c1cnc(C(=O)Nc2ccc(F)c([C@@]3(C)N=C(N)O[C@@H]4CCC(F)(F)[C@@H]43)c2)cn1                IC50  > 200 µM
3  C[C@]1(c2cc(NC(=O)c3ccc(Cl)s3)ccc2F)N=C(N)O[C@@H]2CCCC(F)(F)[C@@H]21                IC50  > 200 µM

query: Give its IC50 value. Item: CC#CCOc1cnc(C(=O)Nc2ccc(F)c([C@@]3(C)N=C(N)O[C@@H]4CCC(F)(F)[C@@H]43)c2)cn1
result: 97 µM

====

- System: CYP2C9 (Homo sapiens, UniProt P11712)
- Sequence (P11712 whole entry): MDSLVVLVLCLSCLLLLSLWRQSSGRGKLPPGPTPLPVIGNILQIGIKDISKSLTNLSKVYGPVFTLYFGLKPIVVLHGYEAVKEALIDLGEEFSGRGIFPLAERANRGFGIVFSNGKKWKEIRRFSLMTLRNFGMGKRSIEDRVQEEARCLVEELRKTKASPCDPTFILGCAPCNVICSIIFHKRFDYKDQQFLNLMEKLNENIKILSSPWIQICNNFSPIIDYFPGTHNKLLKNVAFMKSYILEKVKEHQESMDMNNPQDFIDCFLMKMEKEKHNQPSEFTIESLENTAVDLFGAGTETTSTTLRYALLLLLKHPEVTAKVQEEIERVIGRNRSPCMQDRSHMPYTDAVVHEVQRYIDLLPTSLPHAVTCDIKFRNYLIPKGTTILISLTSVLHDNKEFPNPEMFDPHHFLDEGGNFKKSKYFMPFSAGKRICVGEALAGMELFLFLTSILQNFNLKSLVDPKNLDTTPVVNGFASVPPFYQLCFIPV
Measured attribute: IC50

query: Give its IC50 value. Item: C[C@]1(c2cc(NC(=O)c3ccc(C#N)cn3)ccc2F)N=C(N)O[C@@H]2CCCC(F)(F)[C@@H]21 [Example 8]
result: > 10 µM

====

- System: BACE1 (Homo sapiens, UniProt P56817)
- Construct: Human HEK293 cells which are stably transfected with a vector expressing a cDNA of the human APP wt gene (APP695); endogenous in cells
- Sequence (P56817 46-501): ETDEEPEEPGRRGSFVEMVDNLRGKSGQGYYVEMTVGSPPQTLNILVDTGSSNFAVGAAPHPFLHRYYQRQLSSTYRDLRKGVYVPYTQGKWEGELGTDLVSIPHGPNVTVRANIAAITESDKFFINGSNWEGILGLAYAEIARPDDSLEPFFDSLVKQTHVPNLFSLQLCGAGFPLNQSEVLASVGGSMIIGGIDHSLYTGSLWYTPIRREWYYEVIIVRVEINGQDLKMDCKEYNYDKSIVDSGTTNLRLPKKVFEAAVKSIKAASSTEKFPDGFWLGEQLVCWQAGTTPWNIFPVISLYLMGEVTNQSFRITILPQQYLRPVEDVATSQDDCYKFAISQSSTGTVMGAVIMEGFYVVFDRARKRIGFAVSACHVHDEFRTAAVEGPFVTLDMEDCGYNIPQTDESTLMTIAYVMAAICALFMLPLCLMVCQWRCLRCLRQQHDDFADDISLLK
- Assay explanation: Cellular Aβ-lowering assay (Aβ40 ELISA, HEK293 cells expressing human APP695)
- Test settings: HEK293 cells stably expressing human APP695; Aβ40 in supernatant after 18-20 hrs; read-out: BACE1 cell act. Aβ40 IC50
Measured attribute: IC50 (nM)
API: value field is a number in nM; no unit string.

Consider the worked cases shown below.
>>> df
                                   molecule  numeric_result
0  CC#CCOc1cnc(C(=O)Nc2ccc(F)c([C@@]3(C)N=C(N)O[C@@H]4CCC(F)(F)[C@@H]43)c2)cn1 [Example 1]             0.4
1  C[C@]1(c2cc(NC(=O)c3cnc(C#N)cn3)ccc2F)N=C(N)O[C@@H]2CCC(F)(F)[C@@H]21 [Example 6]             5.5
2  CC(F)(F)c1cnc(C(=O)Nc2ccc(F)c([C@@]3(C)N=C(N)O[C@@H]4CCC(F)(F)[C@@H]43)c2)cn1 [Example 4]             8.9

query: Any idea what IC50 came out for C[C@]1(c2cc(NC(=O)c3ccc(C#N)cn3)ccc2F)N=C(N)O[C@@H]2CCC(F)(F)[C@@H]21 [Example 2] on BACE1 (Homo sapiens, UniProt P56817)?
result: 1.5

query: What do you have for C[C@]1(c2cc(NC(=O)c3ccc(Cl)s3)ccc2F)N=C(N)O[C@@H]2CCCC(F)(F)[C@@H]21 [Example 9] ?
result: 350

query: What do you have for C[C@]1(c2cc(NC(=O)c3ccc(Cl)cn3)ccc2F)N=C(N)O[C@@H]2CCC(F)(F)[C@@H]21 [Example 3] ?
result: 1.9

query: What do you have for C[C@]1(c2cc(NC(=O)c3ccc(C#N)cn3)ccc2F)N=C(N)O[C@@H]2CCCC(F)(F)[C@@H]21 [Example 8] ?
result: 2.2

query: What do you have for C[C@]1(c2cc(NC(=O)c3cnc(CF)cn3)ccc2F)N=C(N)O[C@@H]2CCC(F)(F)[C@@H]21 [Example 5] ?
result: 5.1

query: What do you have for C[C@]1(c2cc(NC(=O)c3ccc(Cl)cn3)ccc2F)N=C(N)O[C@@H]2CCCC(F)(F)[C@@H]21 [Example 7] ?
result: 4.9
